Please provide measured IC50 for the entries that follow.
Test system: human leukemia K562
procedure-summary: MTT assay, K562 cells
Assay type: cell-based
conditions: 48 h, aminoguanidine present, mean ± SD of three determinations, max 50 µM tested
Answers are plain numbers, in µM.

Cl.Cl.NCCCCNCCCCN1C(=O)c2cccc3cccc(c23)C1=O [Compound 7g] = 14
CN(C)CCN1C(=O)c2cccc3cc(N)cc(c23)C1=O [Amonafide, amonafide, reference compound] = 10.1
Cl.Cl.NCCCCCCNCCCCN1C(=O)c2cccc3cccc(c23)C1=O [Compound 7j] = 12.6
Cl.Cl.NCCCCNCCCN1C(=O)c2cccc3cccc(c23)C1=O [Compound 7f] = 18.9
Cl.Cl.NCCCNCCCN1C(=O)c2cccc3cccc(c23)C1=O [Compound 7d] = 19.7

List IC50 for every entry below, keeping the order given.
1. Cl.Cl.NCCNCCCN1C(=O)c2cccc3cccc(c23)C1=O [Compound 7a]
2. Cl.Cl.NCCNCCCCCN1C(=O)c2cccc3cccc(c23)C1=O [Compound 7c]
3. Cl.Cl.NCCCNCCCCCN1C(=O)c2cccc3cccc(c23)C1=O [Compound 7e]

[reply]
1. 48.8
2. 38.8
3. 22.4

---

Provide the recorded melting point for the entries that follow.

Quick request: melting point for each listed item, please.
1. Cl.Cl.NCCCCCCNCCCCN1C(=O)c2cccc3cccc(c23)C1=O
2. Cl.Cl.NCCNCCCCN1C(=O)c2cccc3cccc(c23)C1=O

[reply]
235.9 to 237.2 °C
243.1 to 244.1 °C

I'm hoping you can list melting point for every compound here, please.
1. Cl.Cl.NCCNCCCN1C(=O)c2cccc3cccc(c23)C1=O
2. Cl.Cl.NCCNCCCCCN1C(=O)c2cccc3cccc(c23)C1=O
3. Cl.Cl.NCCCCNCCCCN1C(=O)c2cccc3cccc(c23)C1=O
4. Cl.Cl.NCCCNCCCCCN1C(=O)c2cccc3cccc(c23)C1=O
5. Cl.Cl.NCCCCCCNCCCN1C(=O)c2cccc3cccc(c23)C1=O
6. Cl.Cl.NCCCCCCNCCCCCN1C(=O)c2cccc3cccc(c23)C1=O
7. Cl.Cl.NCCCNCCCN1C(=O)c2cccc3cccc(c23)C1=O

[reply]
1: 233.4 to 235.1 °C; 2: 233.8 to 235.1 °C; 3: 226.7 to 228.3 °C; 4: 238.6 to 239.8 °C; 5: 230.6 to 231.8 °C; 6: 229.1 to 230.3 °C; 7: 233.1 to 234.2 °C

[ask] Entry Cl.Cl.NCCCCNCCCCCN1C(=O)c2cccc3cccc(c23)C1=O : reported melting point = ?
[reply] 236.6 to 237.9 °C

---

System: human leukemia K562
procedure-summary: MTT assay, K562 cells
Format: cell-based
conditions: 48 h, aminoguanidine present, mean ± SD of three determinations, max 50 µM tested
I'd appreciate it if you could supply IC50 values for the items below.
Answers are plain numbers, in µM.

Cl.Cl.NCCNCCCCN1C(=O)c2cccc3cccc(c23)C1=O [Compound 7b] = 25.6
Cl.Cl.NCCCCNCCCCCN1C(=O)c2cccc3cccc(c23)C1=O [Compound 7h] = 15.9
Cl.Cl.NCCCCCCNCCCCCN1C(=O)c2cccc3cccc(c23)C1=O [Compound 7k] = 15.9

[ask] Please give the measured IC50 for this compound: Cl.Cl.NCCCCCCNCCCN1C(=O)c2cccc3cccc(c23)C1=O [Compound 7i]
[reply] 41.4

All figures here come from paper PMC6271870.
